tested on: DOHH2 cells; assay: CellTiter-Glo cell viability assay, DOHH2 cells (Example 11); assay type: cell-based; conditions: Homo sapiens, DOHH-2, DOHH2 parental cells
pIC50: −log10 of the molar value.

{"COMPOUND": "C=CC(=O)N1CCC[C@@H](n2nc(-c3ccc(Oc4ccccc4)cc3)c3c(N)ncnc32)C1 [Ibrutinib, reference compound]", "SYSTEM NAME": "DOHH2 cells", "pIC50": 7.13}
{"COMPOUND": "CC1(C)CCC(CN2CCN(c3ccc(C(=O)NS(=O)(=O)c4ccc(NCC5CCOCC5)c([N+](=O)[O-])c4)c(Oc4cnc5[nH]ccc5c4)c3)CC2)=C(c2ccc(Cl)cc2)C1 [ABT-199, reference compound]", "SYSTEM NAME": "DOHH2 cells", "pIC50": 7.29}
{"COMPOUND": "O=C(NS(=O)(=O)c1ccc(NC[C@H]2COCCO2)c([N+](=O)[O-])c1)c1ccc(N2CCN(CC3=C(c4ccc(Cl)cc4)CC4(CCC4)CC3)CC2)cc1Oc1cnc2[nH]ccc2c1 [Compound 6]", "SYSTEM NAME": "DOHH2 cells", "pIC50": 7.32}
